# experimental system: T1, PCNA1–2 heterodimer of S. solfataricus (S. solfataricus, UniProt P57766 1-249; Q97Z84 1-245)
# T1 sequence 1: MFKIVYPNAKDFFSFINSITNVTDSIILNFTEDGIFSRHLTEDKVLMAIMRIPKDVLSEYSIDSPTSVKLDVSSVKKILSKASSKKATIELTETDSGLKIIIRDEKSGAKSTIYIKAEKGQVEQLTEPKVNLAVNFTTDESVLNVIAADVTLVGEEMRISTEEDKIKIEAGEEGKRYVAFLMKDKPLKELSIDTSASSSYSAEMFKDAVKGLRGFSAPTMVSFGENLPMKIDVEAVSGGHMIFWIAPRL
# T1 sequence 2: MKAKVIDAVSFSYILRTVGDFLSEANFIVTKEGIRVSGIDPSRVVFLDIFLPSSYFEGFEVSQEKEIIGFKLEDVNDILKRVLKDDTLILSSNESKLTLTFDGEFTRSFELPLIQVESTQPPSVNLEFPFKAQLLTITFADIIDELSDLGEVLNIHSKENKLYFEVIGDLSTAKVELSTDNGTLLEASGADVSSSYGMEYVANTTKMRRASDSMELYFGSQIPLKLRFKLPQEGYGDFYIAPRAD
# assay comment: fluorescence polarisation
Ends that are not written are not given here.
test readout: Kd (µM)
Unit µM implied. Number only.

Recorded result, KSKQQSTGILGFLGTTS (also: 6-FAM label, position not given here) [fluorescently labeled Lig loop peptide (17 residues, PIP motif)] , Kd: 177

Taken from paper PMC8897274.
